target: Tau K18 fragment aggregates (amino acids 244 to 372 of human Tau441) (Homo sapiens); construct: encompassing amino acids 244 to 372 of the longest isoform (2N4R) of human Tau441; assay: Tau K18 disaggregation assay by ThT; conditions: 2 μM K18 aggregates, compounds 160 to 0.04 μM, 30 min RT, ThT fluorescence
Sequence (P10636 561-689): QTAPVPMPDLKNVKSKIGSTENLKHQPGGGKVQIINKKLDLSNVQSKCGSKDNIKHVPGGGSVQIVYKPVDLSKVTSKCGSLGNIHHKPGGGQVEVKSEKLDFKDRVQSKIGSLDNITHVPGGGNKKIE
measurement kind: EC50

IN: Item Fc1ccc2[nH]c3c(c2c1)CC1CCC3N1c1ccc(N2CCOCC2)cn1 (stereo not shown) [Example 47] with Tau K18 fragment aggregates (amino acids 244 to 372 of human Tau441) (Homo sapiens) - EC50?
OUT: 10 to 25 µM

This collection of values is drawn from patent US20230255976A1.
